Entries annotated with measured growth inhibition
Assay: NCI Yeast Anticancer Drug Screen. Data for the bub3 strain (AID 167)
Settings: S. cerevisiae bub3 mutant strain, at 50.0 µM, stronger effect = higher value
Compounds without any hit were thinned out: in the full panel of roughly 79,000, 15% have a hit.
Entry rule: numbers only, all in %.

Before answering, review these 2 worked examples.
[[record]]
compound = "COC1OC(CO)C(O)C(OC(C)=O)C1NC(=O)N(CCCl)N=O (stereo not drawn)"
assay_value = -7.65

[[record]]
compound = "CCOC(=O)C(=O)C(CCc1ccc2ccc3cccc4ccc1c2c34)C(=O)OCC (stereo not drawn)"
assay_value = 0.35


Could you now look at the following compound, please?
Name the reported growth inhibition value associated with the compound `CC1(C)CC(=O)C(/C=N/C(N)=S)=C(O)C1`
-0.85
